Hey, just so you know, these numbers are from patent US20220177418A1.

Test system: AR-null (AR-negative) prostate cancer cell lines
experiment-summary: MTT cell viability assay, AR-negative cells
Assay type: cell-based
applied-conditions: growth inhibition grade, 6 days
readout: MTT AR Neg

> print(dat)
                                    compound                         target.under.test  result
 1  N#CC1(NC(=O)/C(=C/c2ccc(Cl)cc2)c2ccc(F)cc2F)CC1  AR-null (AR-negative) prostate cancer cell lines     LOW
 2  O=C(/C=C/C(F)(F)F)NC(=O)/C(=C/c1ccc(Cl)cc1)c1ccc(F)cc1F  AR-null (AR-negative) prostate cancer cell lines     LOW
 3      C=C1CC(c2ccc(OC)cc2)=C(c2ccccc2)C1=O  AR-null (AR-negative) prostate cancer cell lines     LOW
 4  C#CCNC(=O)/C(=C/c1ccc(Cl)cc1)c1ccc(F)cc1F  AR-null (AR-negative) prostate cancer cell lines     LOW
 5  Cc1cnc(/C(=C/c2ccc(Cl)cc2)c2ccc(F)cc2F)o1  AR-null (AR-negative) prostate cancer cell lines     LOW
 6  C=C(C)C(=O)OCCOC(=O)/C(=C/c1ccc(Cl)cc1)c1ccc(F)cc1F  AR-null (AR-negative) prostate cancer cell lines     LOW
 7  C=C(Cc1ccccc1)C(=O)NC(=O)/C(=C/c1ccc(Cl)cc1)c1ccc(F)cc1F  AR-null (AR-negative) prostate cancer cell lines    HIGH
 8  CCC1=C(C)CN(C(=O)/C(=C/c2ccc(Cl)cc2)c2ccccc2)C1=O  AR-null (AR-negative) prostate cancer cell lines    HIGH
 9  C=C1CN=C(/C(=C/c2ccc(Cl)cc2)c2ccc(F)cc2F)O1  AR-null (AR-negative) prostate cancer cell lines     LOW
10  O=C(NC(=O)C1CC1)/C(=C/c1ccc(Cl)cc1)c1ccc(F)cc1F  AR-null (AR-negative) prostate cancer cell lines     LOW
11  C=CC(=O)NC(=O)/C(=C/c1ccc(Cl)cc1)c1ccc(F)cc1  AR-null (AR-negative) prostate cancer cell lines     LOW
12  NS(=O)(=O)NC(=O)/C(=C/c1ccc(Cl)cc1)c1ccc(F)cc1F  AR-null (AR-negative) prostate cancer cell lines     LOW
13  O=C(C1=CCN(Cc2ccccc2)CC1)/C(=C/c1ccc(Cl)cc1)c1ccccc1  AR-null (AR-negative) prostate cancer cell lines     LOW
14  C=C(C)C(=O)NC(=O)/C(=C/c1ccc(Cl)cc1)c1ccc(C(F)(F)F)cc1  AR-null (AR-negative) prostate cancer cell lines     LOW
15  C=C(C)C(=O)NCCCNC(=O)/C(=C/c1ccc(Cl)cc1)c1ccc(F)cc1F  AR-null (AR-negative) prostate cancer cell lines     LOW
16  O=C1CCCN1C(=O)/C(=C/c1ccc(Cl)cc1)c1ccccc1  AR-null (AR-negative) prostate cancer cell lines     LOW
17  O=C(/C=C/c1ccccc1)NC(=O)/C(=C/c1ccc(Cl)cc1)c1ccc(F)cc1F  AR-null (AR-negative) prostate cancer cell lines     LOW
18  C=C(C)C(=O)NC(=O)/C(=C/c1ccc(C(F)(F)F)nc1)c1ccccc1  AR-null (AR-negative) prostate cancer cell lines    HIGH
19  CNC(=O)c1ccc(N2C(=S)N(c3ccc(C#N)c(C(F)(F)F)c3)C(=O)C2(C)C)cc1F [MDV3100, reference compound]  AR-null (AR-negative) prostate cancer cell lines     LOW
20  COC1=CC(=O)N(C(=O)/C(=C/c2ccc(Cl)cc2)c2ccc(F)cc2F)C1  AR-null (AR-negative) prostate cancer cell lines     LOW
